# credit: patent US4843070A

Tested on: E. coli KC-14
experiment summary: MIC by agar plate dilution method, E. coli KC-14
Format: cell-based
condition info: Escherichia coli, KC14; Test 1; E. coli KC-14; inoculum 10^6; 37° C., 18 hours; read-out: minimum inhibitory concentration (MIC)
Description: Test method: The MIC was measured by an agar plate dilution method in accordance with a standard method of Japan Chemotherapeutic Society (cf. Nippon Kagaku Ryoho Gakkaishi, 29(1), 76-79, 1981). Thus, the organisms incubated at 37° C. for 18 hours using sensitivity test broth (Nissei) was diluted to 10^6 CFU/ml using the same broth. […] As a control, enoxacin and ofloxacin were used in Tests 1 and 2, respectively. […]
reported property: MIC (µg/mL)
State the answer as a number, implicitly in µg/mL.

- CC1Sc2c(C(=O)O)c(=O)c3cc(Cl)c(N4CCNCC4)cc3n21 (centres unmarked): 0.025

Here's the next entry for you.
q: Identify measured MIC corresponding to CC1Sc2c(C(=O)O)c(=O)c3cc(F)c(N4CCN(Cc5ccc(N)cc5)CC4)cc3n21 (centres unmarked)
a: 0.05

* * *

System: M. luteus ATCC 9341
experiment summary: MIC by agar plate dilution method, M. luteus ATCC 9341
Assay type: cell-based
condition info: Micrococcus luteus, ATCC9341; Test 1; M. luteus ATCC 9341; inoculum 10^6; 37° C., 18 hours; read-out: minimum inhibitory concentration (MIC)
reported property: MIC (µg/mL)
// note: answer is a bare numeric in µg/mL

Consider the worked cases shown below.
- CC1Sc2c(C(=O)O)c(=O)c3cc(F)c(N4CCN(Cc5ccc(N)cc5)CC4)cc3n21 (centres unmarked): 0.39
- CC1Sc2c(C(=O)O)c(=O)c3cc(Cl)c(N4CCNCC4)cc3n21 (centres unmarked): 1.56

q: Kindly indicate its recorded MIC. Item: CCn1cc(C(=O)O)c(=O)c2cc(F)c(N3CCNCC3)nc21 [Enoxacin, enoxacin, reference compound]
a: 25

q: Give the reported MIC for this compound. CC1Sc2c(C(=O)O)c(=O)c3cc(F)c(N4CCSCC4)cc3n21 (centres unmarked)
a: 1.56

q: Give recorded MIC. CC1Sc2c(C(=O)O)c(=O)c3cc(F)c(N4CCN(C)CC4)c(N)c3n21 (centres unmarked)
a: 50

* * *

Tested on: S. aureus Smith
experiment summary: MIC by agar plate dilution method, S. aureus Smith
Assay type: cell-based
condition info: Staphylococcus aureus; Test 1; S. aureus Smith; inoculum 10^6; 37° C., 18 hours; read-out: minimum inhibitory concentration (MIC)
reported property: MIC

The examples below pair each entry with its known result.
• CC1Sc2c(C(=O)O)c(=O)c3cc(F)c(N4CCN(C)CC4)c(N)c3n21 (centres unmarked) = 0.2 µg/mL
• CC1Sc2c(C(=O)O)c(=O)c3cc(F)c(N4CCSCC4)cc3n21 (centres unmarked) = ≤ 0.0063 µg/mL

q: Fill in: MIC on S. aureus Smith, entry CC1Sc2c(C(=O)O)c(=O)c3cc(F)c(N4CCN(Cc5ccc(N)cc5)CC4)cc3n21 (centres unmarked)
a: ≤ 0.0063 µg/mL

q: Identify measured MIC obtained with S. aureus Smith for CCn1cc(C(=O)O)c(=O)c2cc(F)c(N3CCNCC3)nc21 [Enoxacin, enoxacin, reference compound] .
a: 0.78 µg/mL

q: With S. aureus Smith as the test system, provide measured MIC for this compound: CC1Sc2c(C(=O)O)c(=O)c3cc(Cl)c(N4CCNCC4)cc3n21 (centres unmarked)
a: 0.2 µg/mL

* * *

System: S. flexneri
experiment summary: MIC by agar plate dilution method, S. flexneri
Format: cell-based
condition info: Shigella flexneri, Test 2, inoculum 10^6, 37° C., 18 hours, read-out: minimum inhibitory concentration (MIC)
reported property: MIC (µg/mL)
Only the number, expressed in µg/mL, is required.

Some compounds with known MIC results, for comparison:
• O=C(O)c1c2n(c3cc(N4CCNCC4)c(F)cc3c1=O)C(c1ccc(F)cc1)S2 (centres unmarked) = 0.025
• CC1COc2c(N3CCN(C)CC3)c(F)cc3c(=O)c(C(=O)O)cn1c23 (racemic) [Ofloxacin, ofloxacin, reference compound] = 0.1
• CC1Sc2c(C(=O)O)c(=O)c3cc(F)c(N4CCNCC4)cc3n21 (centres unmarked) = 0.0125
• O=C(O)c1c2n(c3cc(N4CCNCC4)c(F)cc3c1=O)C(c1ccccc1)S2 (centres unmarked) = 0.025

q: Specify MIC for COc1c(N2CCN(C)CC2)c(F)cc2c(=O)c(C(=O)O)c3n(c12)C(C)S3 (centres unmarked) and stop.
a: 0.0125

* * *

MIC: recorded values
System: B. subtilis ATCC 6633
experiment summary: MIC by agar plate dilution method, B. subtilis ATCC 6633
Type: cell-based
condition info: Bacillus subtilis, ATCC6633; Test 1; B. subtilis ATCC 6633; inoculum 10^6; 37° C., 18 hours; read-out: minimum inhibitory concentration (MIC)
The answer is to be given in µg/mL; state only the numeric part.

Would you please look over these solved cases?
• CC1Sc2c(C(=O)O)c(=O)c3cc(Cl)c(N4CCNCC4)cc3n21 (centres unmarked) = 0.2
• CCn1cc(C(=O)O)c(=O)c2cc(F)c(N3CCNCC3)nc21 [Enoxacin, enoxacin, reference compound] = 0.2

Let us examine a further case.
q: Give the value of MIC reported for the following: CC1Sc2c(C(=O)O)c(=O)c3cc(F)c(N4CCN(C)CC4)c(N)c3n21 (centres unmarked)
a: 0.2

* * *

experiment summary: in vivo
condition info: mouse, oral administration, ddY-strain male mice, 2 weeks
Documented LD50 at 336 h across a set of compounds

Here are 2 compounds together with their reported answers.
- CC1Sc2c(C(=O)O)c(=O)c3cc(F)c(N4CCN(C)CC4)cc3n21 (stereo not drawn): ≥ 3000 mg/kg
- CCOC(=O)c1c2n(c3cc(N4CCN(C)C(C)C4)c(F)cc3c1=O)C(C)S2 (stereo not drawn): ≥ 3000 mg/kg

Switching to the query record.
q: Answer with reported LD50 at 336 h of CCOC(=O)c1c2n(c3cc(N4CCN(CC(C)=O)CC4)c(F)cc3c1=O)C(C)S2 (stereo not drawn)
a: ≥ 3000 mg/kg

* * *

System: E. cloacae No. 1
experiment summary: MIC by agar plate dilution method, E. cloacae No. 1
Assay type: cell-based
condition info: Enterobacter cloacae; Test 1; E. cloacae No. 1; inoculum 10^6; 37° C., 18 hours; read-out: minimum inhibitory concentration (MIC)
reported property: MIC (µg/mL)
Please give a number only; it is taken to be in µg/mL.

• CC1Sc2c(C(=O)O)c(=O)c3cc(Cl)c(N4CCNCC4)cc3n21 (centres unmarked) = 0.05
• CC1Sc2c(C(=O)O)c(=O)c3cc(F)c(N4CCSCC4)cc3n21 (centres unmarked) = 0.39
• CC1Sc2c(C(=O)O)c(=O)c3cc(F)c(N4CCN(C)CC4)c(N)c3n21 (centres unmarked) = 0.2
• CCn1cc(C(=O)O)c(=O)c2cc(F)c(N3CCNCC3)nc21 [Enoxacin, enoxacin, reference compound] = 0.1

// moving on: another record for MIC
q: Identify measured MIC corresponding to CC1Sc2c(C(=O)O)c(=O)c3cc(F)c(N4CCN(Cc5ccc(N)cc5)CC4)cc3n21 (centres unmarked)
a: 0.39

* * *

Listing of recorded MIC by entry.
System: P. aeruginosa E-2
experiment summary: MIC by agar plate dilution method, P. aeruginosa E-2
Format: cell-based
condition info: Pseudomonas aeruginosa, E2; Test 1; P. aeruginosa E-2; inoculum 10^6; 37° C., 18 hours; read-out: minimum inhibitory concentration (MIC)
Your answer is read as µg/mL, so omit the unit and give the number.

Some solved entries appear below for comparison.
* CC1Sc2c(C(=O)O)c(=O)c3cc(F)c(N4CCSCC4)cc3n21 (centres unmarked) [(6)] | 0.78
* CCn1cc(C(=O)O)c(=O)c2cc(F)c(N3CCNCC3)nc21 [Enoxacin, enoxacin, reference compound] | 0.78

q: Specify MIC for CC1Sc2c(C(=O)O)c(=O)c3cc(Cl)c(N4CCNCC4)cc3n21 (centres unmarked) [(7)] and stop.
a: 1.56

q: Name the recorded MIC of the compound listed here: CC1Sc2c(C(=O)O)c(=O)c3cc(F)c(N4CCN(Cc5ccc(N)cc5)CC4)cc3n21 (centres unmarked) [Table 1 (10)]
a: 3.13

q: Look up and state reported MIC for CC1Sc2c(C(=O)O)c(=O)c3cc(F)c(N4CCN(C)CC4)c(N)c3n21 (centres unmarked) [Table 1 (9)]
a: 1.56

* * *

Tested on: P. aeruginosa E-2
experiment summary: MIC by agar plate dilution method, P. aeruginosa E-2
Assay type: cell-based
condition info: Pseudomonas aeruginosa, E2; Test 2; P. aeruginosa E-2; inoculum 10^6; 37° C., 18 hours; read-out: minimum inhibitory concentration (MIC)
reported property: MIC (µg/mL)
Write it as a number; the unit µg/mL goes unstated.

Past entries and their recorded results:
* COc1c(N2CCN(C)CC2)c(F)cc2c(=O)c(C(=O)O)c3n(c12)C(C)S3 (centres unmarked) | 0.39
* O=C(O)c1c2n(c3cc(N4CCNCC4)c(F)cc3c1=O)C(c1ccc(F)cc1)S2 (centres unmarked) | 0.39
* O=C(O)c1c2n(c3cc(N4CCNCC4)c(F)cc3c1=O)C(c1ccccc1)S2 (centres unmarked) | 0.2
* CC1Sc2c(C(=O)O)c(=O)c3cc(F)c(N4CCNCC4)cc3n21 (centres unmarked) | 0.2

q: For CC1COc2c(N3CCN(C)CC3)c(F)cc3c(=O)c(C(=O)O)cn1c23 (racemic) [Ofloxacin, ofloxacin, reference compound] , write its MIC.
a: 1.56
